# credit: ChEMBL document CHEMBL5046282

Experiment: Volume of distribution at steady state in non-fasted ICR mouse at 0.5 mg/kg, iv by LC-MS/MS analysis
Type: ADME, organism-based
Details: in vivo, read-out: Vdss
Hi there, I'd appreciate the recorded Vd for every entry that follows.
Return type: number; implicit unit L/kg.

Asked: Supply Vd value. Item: CC(C)(O)c1ccc(NC(=O)c2ccnn(-c3ccccc3OCC(F)(F)F)c2=O)cc1
Given back: 1.97

Asked: Please list Vd recorded for the compound CC(C)(O)c1ccc(N2Cc3c(ccnc3-c3ccc(F)cc3OCC(F)(F)F)C2=O)cc1
Given back: 1.08

* * *

Test: 1-Octanol/aqueous buffer partition coefficient, logD of the compound at pH 7.4 by chromatographic method
Format: physicochemical
For each entry below, report its chromatographic logD value.
Just the number.

Asked: Return reported chromatographic logD. Input compound: CC(C)(O)COc1ccc(N2Cc3c(ccnc3-c3ccc(F)cc3OCC(F)(F)F)C2=O)cc1
Given back: 2.67

Asked: Give chromatographic logD for the following compound: CC(C)(C#N)c1ccc(N2Cc3c(ccnc3-c3ccc(F)cc3OCC(F)(F)F)C2=O)cc1
Given back: 2.86

Asked: Supply reported chromatographic logD belonging to this compound: COc1ccccc1-n1ncc2c1CN(c1ccccc1)C2=O
Given back: 2.45

Asked: Indicate the recorded chromatographic logD value for this compound: CC(C)(O)c1ccc(NC(=O)c2ccnn(-c3ccccc3OCC(F)(F)F)c2=O)cc1
Given back: 2.42

Asked: Consider the compound COc1ccccc1-c1ccnc2c1CN(c1ccccc1)C2=O . State its measured chromatographic logD.
Given back: 2.81

Asked: Tell me its chromatographic logD given CC(C)(O)c1ccc(NC(=O)c2cccc(-c3ccccc3OCC(F)(F)F)c2F)cc1 as the entry.
Given back: 3.06

Asked: Check the records and state chromatographic logD for CC(C)(O)c1ccc(NC(=O)c2cccc(-c3ccccc3OCC(F)(F)F)n2)cc1
Given back: 3.6

Asked: Retrieve chromatographic logD measured for CS(=O)(=O)c1ccc(N2Cc3c(ccnc3-c3ccc(F)cc3OCC(F)(F)F)C2=O)cc1 and print it.
Given back: 1.86

Asked: Please report chromatographic logD for the following compound: CC(C)(O)c1ccc(NC(=O)c2ccnn(-c3ccc(F)cc3OCC(F)(F)F)c2=O)cc1
Given back: 2.55

Asked: Complete the entry with chromatographic logD for CN(C)C(=O)c1ccc(N2Cc3c(ccnc3-c3ccc(F)cc3OCC(F)(F)F)C2=O)cc1
Given back: 1.99

Asked: Supply reported chromatographic logD belonging to this compound: COc1ccccc1-c1cccc2c1CN(c1ccccc1)C2=O
Given back: 3.87

Asked: Return the recorded chromatographic logD value; entry: CC(C)(O)c1ccc(NC(=O)c2cccc(-c3ccccc3OCC(F)(F)F)c2)cc1
Given back: 3.16

Asked: # return recorded chromatographic logD for entry COc1ccccc1-c1cncc2c1CN(c1ccccc1)C2=O
Given back: 2.94

Asked: Note down chromatographic logD recorded for COc1ccccc1-c1nccc2c1CN(c1ccccc1)C2=O
Given back: 2.84

Asked: Give chromatographic logD for CC(C)(O)c1ccc(N2Cc3c(ccnc3-c3ccc(F)cc3OCC(F)(F)F)C2=O)cc1
Given back: 2.48

Asked: Find the measured chromatographic logD of CC(C)(O)c1ccc(NC(=O)c2cccn(-c3ccccc3OCC(F)(F)F)c2=O)cc1 and report it.
Given back: 2.12

Asked: Please report chromatographic logD for the following compound: O=C1c2ccnc(-c3ccc(F)cc3OC(F)(F)F)c2CN1c1ccc(F)cc1
Given back: 3
